assay: Antiproliferative activity against human BGC823 cells assessed as inhibition of cell proliferation at 10 uM by MTT assay; assay type: functional; conditions: BGC-823
inhibition at 10 µM: recorded values
Quick note: give the figure in %, leave out the unit.

Known results for molecules:
CS(=O)(=O)c1ccc2c(c1)CCN2S(=O)(=O)c1ccc(-c2cnc(C3CC3)o2)cc1
28.3
O=S(=O)(c1ccc(-c2cnc(C3CC3)o2)cc1)N1CCc2ccc(Cl)cc21
87.4
O=[N+]([O-])c1ccc2c(c1)CCN2S(=O)(=O)c1ccc(-c2cnc(C3CC3)o2)cc1
87.5

Req: // inhibition at 10 µM lookup, key: O=S(=O)(c1ccc(-c2cnc(C3CC3)o2)cc1)N1CC2(CCCCC2)c2ccccc21
Resp: 84.1

Req: Then what about the molecule O=S(=O)(c1ccc(-c2cnc(C3CC3)o2)cc1)n1ccc2ccccc21 ?
Resp: 37.9

Req: Then what about the molecule Cc1ccc2c(c1)CCN2S(=O)(=O)c1ccc(-c2cnc(C3CC3)o2)cc1 ?
Resp: 79.1
